Listing of recorded inhibition at 1 µM by entry.
Test system: A375 melanoma
experimental-details: MTT proliferation inhibition, A375
Type: cell-based
condition: Homo sapiens, A-375, read-out: Proliferation inhibition rate, A375 Melanoma
Please give a number only; it is taken to be in %.

CO[C@H]1C(=O)[C@]2(C)[C@@H](OC)C[C@H]3OC[C@@]3(OC(C)=O)[C@H]2[C@H](OC(=O)c2ccccc2)[C@]23OC(=O)O[C@H]2[C@H](OC(=O)[C@H](O)[C@H](CC(C)C)NC(=O)OC(C)(C)C)C(C)=C1C3(C)C = 87.9

Input line: Could you please provide reported inhibition at 1 µM for `CO[C@H]1C[C@H]2OC[C@@]2(OC(C)=O)[C@H]2[C@H](OC(=O)c3ccccc3)[C@]34OC(=O)O[C@H]3[C@H](OC(=O)[C@H](O)[C@@H](NC(=O)OC(C)(C)C)c3ccccc3)C(C)=C([C@@H](OC(=O)N(C)C)C(=O)[C@]12C)C4(C)C` ? Thanks!
Output line: 92.8

----------
experimental-details: In vivo oral bioavailability assay in rats
condition: male, Sprague-Dawley, plasma; rat, oral administration 60 mg/kg
property-measured: Tmax (h)
Please give a number only; it is taken to be in h.

Input line: Could you please provide reported Tmax for `CO[C@H]1C[C@H]2OC[C@@]2(OC(C)=O)[C@H]2[C@H](OC(=O)c3ccccc3)[C@]34OC(=O)O[C@H]3[C@H](OC(=O)[C@H](O)[C@@H](NC(=O)OC(C)(C)C)c3ccccc3)C(C)=C([C@@H](OC(=O)N(C)C)C(=O)[C@]12C)C4(C)C` ? Thanks!
Output line: 3

----------
experimental-details: Caco-2 bidirectional transport, efflux ratio
condition: human, Caco-2
property-measured: Papp A→B (×10⁻⁶ cm/s)
Please give a number only; it is taken to be in ×10⁻⁶ cm/s.

Input line: Could you please provide reported Papp A→B for `CO[C@H]1C(=O)[C@]2(C)[C@@H](OC(=O)N(C)C)C[C@H]3OC[C@@]3(OC(C)=O)[C@H]2[C@H](OC(=O)c2ccccc2)[C@]23OC(=O)O[C@H]2[C@H](OC(=O)[C@H](O)[C@@H](NC(=O)OC(C)(C)C)c2ccccc2)C(C)=C1C3(C)C` ? Thanks!
Output line: 1.98

Input line: Could you please provide reported Papp A→B for `COC(=O)O[C@H]1C[C@H]2OC[C@@]2(OC(C)=O)[C@H]2[C@H](OC(=O)c3ccccc3)[C@]34OC(=O)O[C@H]3[C@H](OC(=O)[C@H](O)[C@@H](NC(=O)N(C)C)c3ccccc3)C(C)=C([C@@H](OC)C(=O)[C@]12C)C4(C)C` ? Thanks!
Output line: 2.79

----------
Test system: NCI-H460 non-small cell lung cancer
experimental-details: MTT proliferation inhibition, NCI-H460
Type: cell-based
condition: Homo sapiens, NCI-H460, read-out: Proliferation inhibition rate, NCI-H460 Non-small cell lung cancer
Listing of recorded inhibition at 1 µM by entry.
Units required after the number.

CO[C@H]1C(=O)[C@]2(C)CC[C@H]3OC[C@@]3(OC(C)=O)[C@H]2[C@H](OC(=O)c2ccccc2)[C@]23OC(=O)O[C@H]2[C@H](OC(=O)[C@H](O)[C@@H](NC(=O)OC(C)(C)C)c2ccccc2)C(C)=C1C3(C)C = 82.7%

Input line: Could you please provide reported inhibition at 1 µM for `CO[C@H]1C(=O)[C@]2(C)[C@@H](OC)C[C@H]3OC[C@@]3(OC(C)=O)[C@H]2[C@H](OC(=O)c2ccccc2)[C@]23OC(=O)O[C@H]2[C@H](OC(=O)[C@H](O)[C@H](CC(C)C)NC(=O)OC(C)(C)C)C(C)=C1C3(C)C` ? Thanks!
Output line: 82%

Input line: Could you please provide reported inhibition at 1 µM for `CO[C@H]1C[C@H]2OC[C@@]2(OC(C)=O)[C@H]2[C@H](OC(=O)c3ccccc3)[C@]34OC(=O)O[C@H]3[C@H](OC(=O)[C@H](O)[C@@H](NC(=O)OC(C)(C)C)c3ccccn3)C(C)=C([C@@H](OC(=O)N(C)C)C(=O)[C@]12C)C4(C)C` ? Thanks!
Output line: 85.8%

Input line: Could you please provide reported inhibition at 1 µM for `CO[C@H]1C(=O)[C@]2(C)[C@@H](OC(=O)N(C)C)C[C@H]3OC[C@@]3(OC(C)=O)[C@H]2[C@H](OC(=O)c2ccccc2)[C@]23OC(=O)O[C@H]2[C@H](OC(=O)[C@H](O)[C@@H](NC(=O)OC(C)(C)C)c2ccccc2)C(C)=C1C3(C)C` ? Thanks!
Output line: 86.9%

Input line: Could you please provide reported inhibition at 1 µM for `CO[C@H]1C(=O)[C@]2(C)[C@@H](OC)C[C@H]3OC[C@@]3(OC(C)=O)[C@H]2[C@H](OC(=O)c2ccccc2)[C@]23OC(=O)O[C@H]2[C@H](OC(=O)[C@H](O)[C@@H](NC(=O)OC(C)(C)C)c2ccccc2)C(C)=C1C3(C)C` ? Thanks!
Output line: 87.9%

Input line: Could you please provide reported inhibition at 1 µM for `CO[C@H]1C(=O)[C@]2(C)[C@@H](OC(=O)N(C)C)C[C@H]3OC[C@@]3(OC(C)=O)[C@H]2[C@H](OC(=O)c2ccccc2)[C@]23OC(=O)O[C@H]2[C@H](OC(=O)[C@H](O)[C@H](CC(C)C)NC(=O)OC(C)(C)C)C(C)=C1C3(C)C` ? Thanks!
Output line: 87.2%

Input line: Could you please provide reported inhibition at 1 µM for `CO[C@H]1C[C@H]2OC[C@@]2(OC(C)=O)[C@H]2[C@H](OC(=O)c3ccccc3)[C@]34OC(=O)O[C@H]3[C@H](OC(=O)[C@H](O)[C@@H](NC(=O)N(C)C)c3ccccc3)C(C)=C([C@@H](OC(=O)N(C)C)C(=O)[C@]12C)C4(C)C` ? Thanks!
Output line: 82.2%

Values compiled from patent US9890175B2.
